System: Escherichia coli TOP10;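 also: peptides expressed intracellularly from a pBAD plasmid library in pooled LB shake-flask culture, induced with 0.3% L-arabinose, DNA abundance read by NGS, three biological replicates, DESeq2 with apeglm shrinkage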
Experiment: shrunken log2 fold change of peptide-encoding DNA abundance (4.5 h post-induction vs induction); higher = less antimicrobial activity (less host growth inhibition)
Conditions: time post-induction: 4.5 h; library: site-saturation at positions 5, 18, 19, 20
Exercise: for every item that follows, state its recorded shrunken log2 fold change.
Number only, please.

Bench note: what shrunken log2 fold change did RRIRDRPPRLPRPRPRPELHPRP show?
0.319

Bench note: what shrunken log2 fold change did RRIRIRPPRLPRPRPRPWHYPRP show?
-0.111

Bench note: what shrunken log2 fold change did RRIRMRPPRLPRPRPRPWVHPRP show?
0.031

Bench note: what shrunken log2 fold change did RRIRVRPPRLPRPRPRPPHMPRP show?
-0.0804

Bench note: what shrunken log2 fold change did RRIRARPPRLPRPRPRPSKPPRP show?
-0.281

Bench note: what shrunken log2 fold change did RRIRYRPPRLPRPRPRPEHYPRP show?
-0.126

Bench note: what shrunken log2 fold change did RRIRKRPPRLPRPRPRPPTCPRP show?
0.217

Bench note: what shrunken log2 fold change did RRIRNRPPRLPRPRPRPVNYPRP show?
-0.179

Bench note: what shrunken log2 fold change did RRIRIRPPRLPRPRPRPEEWPRP show?
-0.128

Bench note: what shrunken log2 fold change did RRIRLRPPRLPRPRPRPCQTPRP show?
-0.0348

Bench note: what shrunken log2 fold change did RRIRVRPPRLPRPRPRPCAEPRP show?
-0.0931

Bench note: what shrunken log2 fold change did RRIRQRPPRLPRPRPRPYGGPRP show?
-0.29

Bench note: what shrunken log2 fold change did RRIRLRPPRLPRPRPRPTMTPRP show?
-0.256

Bench note: what shrunken log2 fold change did RRIRSRPPRLPRPRPRPFSTPRP show?
-0.372

Bench note: what shrunken log2 fold change did RRIRRRPPRLPRPRPRPVLGPRP show?
0.528

Bench note: what shrunken log2 fold change did RRIRVRPPRLPRPRPRPWAHPRP show?
-0.0201

Bench note: what shrunken log2 fold change did RRIRWRPPRLPRPRPRPPDIPRP show?
0.238

Bench note: what shrunken log2 fold change did RRIRERPPRLPRPRPRPWRDPRP show?
-0.268

Bench note: what shrunken log2 fold change did RRIRVRPPRLPRPRPRPACYPRP show?
-0.0764

Bench note: what shrunken log2 fold change did RRIRLRPPRLPRPRPRPFIYPRP show?
-0.504

Bench note: what shrunken log2 fold change did RRIRGRPPRLPRPRPRPIGNPRP show?
-0.149

Bench note: what shrunken log2 fold change did RRIRNRPPRLPRPRPRPFKDPRP show?
-0.327

Bench note: what shrunken log2 fold change did RRIRLRPPRLPRPRPRPKSDPRP show?
0.00855

Bench note: what shrunken log2 fold change did RRIRSRPPRLPRPRPRPTEYPRP show?
-0.206

Bench note: what shrunken log2 fold change did RRIRHRPPRLPRPRPRPTIMPRP show?
-0.362

Bench note: what shrunken log2 fold change did RRIRARPPRLPRPRPRPMEEPRP show?
-0.0115

Bench note: what shrunken log2 fold change did RRIRSRPPRLPRPRPRPHRHPRP show?
-0.0713

Bench note: what shrunken log2 fold change did RRIRQRPPRLPRPRPRPPGAPRP show?
0.757

Bench note: what shrunken log2 fold change did RRIRERPPRLPRPRPRPCPTPRP show?
-0.204

Bench note: what shrunken log2 fold change did RRIRQRPPRLPRPRPRPALCPRP show?
0.171

Bench note: what shrunken log2 fold change did RRIRTRPPRLPRPRPRPYNYPRP show?
-0.866

Bench note: what shrunken log2 fold change did RRIRQRPPRLPRPRPRPLVSPRP show?
0.00785

Bench note: what shrunken log2 fold change did RRIRYRPPRLPRPRPRPCPYPRP show?
-0.0107

Bench note: what shrunken log2 fold change did RRIRGRPPRLPRPRPRPFHYPRP show?
-0.383

Bench note: what shrunken log2 fold change did RRIRTRPPRLPRPRPRPYETPRP show?
-0.00043

Bench note: what shrunken log2 fold change did RRIRWRPPRLPRPRPRPIPLPRP show?
-0.121

Bench note: what shrunken log2 fold change did RRIRKRPPRLPRPRPRPLIGPRP show?
0.28

Bench note: what shrunken log2 fold change did RRIRIRPPRLPRPRPRPYANPRP show?
-0.0728

Bench note: what shrunken log2 fold change did RRIRQRPPRLPRPRPRPRRAPRP show?
0.79

Bench note: what shrunken log2 fold change did RRIRQRPPRLPRPRPRPNLAPRP show?
0.281

Bench note: what shrunken log2 fold change did RRIRLRPPRLPRPRPRPWQRPRP show?
-0.161

Bench note: what shrunken log2 fold change did RRIRIRPPRLPRPRPRPVENPRP show?
-0.0976

Bench note: what shrunken log2 fold change did RRIRRRPPRLPRPRPRPYFKPRP show?
-0.572

Bench note: what shrunken log2 fold change did RRIRVRPPRLPRPRPRPPIAPRP show?
0.322

Bench note: what shrunken log2 fold change did RRIRTRPPRLPRPRPRPPKHPRP show?
0.157

Bench note: what shrunken log2 fold change did RRIRCRPPRLPRPRPRPVPYPRP show?
-0.533

Bench note: what shrunken log2 fold change did RRIRDRPPRLPRPRPRPFSTPRP show?
-0.0877
